Cited source for all entries: ChEMBL document CHEMBL1121379

- Tested on: HeLa
- PROTOCOL_SUMMARY: Concentration required for 50% growth inhibition of the following cell lines Hela cells
- Type: functional
- MEASUREMENT_SETUP: Homo sapiens, read-out: ID50 (the source's name)
QUANTITY: pIC50
Scale: pIC50 equals -log10([C]), with [C] in mol/L.

Ask | May I ask what pIC50 has been recorded for C#CCNc1ncnc2c1ncn2C1O[C@H](CO)[C@@H](O)[C@H]1O (stereo partly specified) ?
Reply | 5.46

###

- PROTOCOL_SUMMARY: Concentration required for 50% growth inhibition of the following cell lines human fibro blast cells
- Type: functional
- MEASUREMENT_SETUP: read-out: ID50 (the source's name)
QUANTITY: IC50

Ask | Fill in: IC50 of C#CCNc1ncnc2c1ncn2C1O[C@H](CO)[C@@H](O)[C@H]1O (some centres undefined) is ___
Reply | 2800 nM

###

- System: MCF7
- PROTOCOL_SUMMARY: Concentration required for 50% growth inhibition of human breast tumor cells MCF-7 human breast carcinoma cells
- Assay type: functional
- MEASUREMENT_SETUP: read-out: ID50 (the source's name)
QUANTITY: IC50 (µM)
Report as a plain number; the unit µM is understood.

These solved cases illustrate the format of a correct answer.
CC(C)Nc1ncnc2c1ncn2[C@@H]1O[C@H](CO)[C@@H](O)[C@H]1O : 6.3
C=CCNc1ncnc2c1ncn2[C@@H]1O[C@H](CO)[C@@H](O)[C@H]1O : 1.4

Ask | State the recorded IC50 for this entry: OC[C@H]1O[C@@H](n2cnc3c(NCc4ccccc4)ncnc32)[C@H](O)[C@@H]1O
Reply | 22

Ask | Another: C#CCNc1ncnc2c1ncn2C1O[C@H](CO)[C@@H](O)[C@H]1O (some centres undefined)
Reply | 1.6

###

- PROTOCOL_SUMMARY: Concentration required for 50% growth inhibition of the following cell lines human fibro blast cells
- Format: functional
- MEASUREMENT_SETUP: read-out: ID50 (the source's name)
QUANTITY: pIC50
Units for pIC50: none; it is -log10 of a concentration expressed in mol/L.

C=C(C)CNc1ncnc2c1ncn2C1O[C@H](CO)[C@@H](O)[C@H]1O (stereo partly drawn) : 5.82
CC(C)Nc1ncnc2c1ncn2[C@@H]1O[C@H](CO)[C@@H](O)[C@H]1O : 5.19

Ask | Tell me the measured pIC50 of C=CCNc1ncnc2c1ncn2[C@@H]1O[C@H](CO)[C@@H](O)[C@H]1O , please.
Reply | 5.57
